Tested on: K562
protocol_details: Cytotoxicity against human K562 cells assessed as cell growth at 10^-5 M after 48 hrs by sulforhodamine B assay
Assay type: functional
measurement_context: K562, 48 h, read-out: Activity
parameter_measured: growth at 10 µM (%)

CC1=NN(c2cccc(Cl)c2)C(=O)/C1=C\c1cn(CC(O)Cn2cc(/C=C3\C(=O)N(c4cccc(Cl)c4)N=C3C)c3ccccc32)c2ccccc12    101
CN1C(=O)C(=Cc2cn(CC(O)Cn3cc(C=C4C(=O)N(C)C(=O)N(C)C4=O)c4ccccc43)c3ccccc23)C(=O)N(C)C1=O    97.3
COc1cc(/C=C2\C(=O)Nc3ccccc32)cc(OC)c1O    7.58
O=C1Nc2ccccc2/C1=C/c1cn(CC(O)Cn2cc(/C=C3\C(=O)Nc4ccccc43)c3ccccc32)c2ccccc12 (stereo not given)    -16.7
O=C1NC(=O)C(=Cc2cn(CC(O)Cn3cc(C=C4C(=O)NC(=O)NC4=O)c4ccccc43)c3ccccc23)C(=O)N1    107

// provenance: ChEMBL document CHEMBL3785084
